subject-of-test: T1, biotinylated CD3 epsilon:delta heterodimer protein (Amsbio AMS.CDD-H52WO) (Homo sapiens (Human), UniProt P07766 23-126; P04234 22-105)
T1 construct: also called CD3 heterodimer
assay-method-text: BLI (Octet), CD3 on SA sensor, Fab analyte;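 note: biolayer interferometry with biotinylated CD3 epsilon:delta captured on streptavidin sensors, Fab analyte at several concentrations up to 300 nM, 100 s association then 300 s dissociation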
pKd: −log10 of the molar value.
# key: entry, value: pKd
measured-metric: pKd

• huSP34.5.1 Fab-HF (Fab, V domains shown, also called HC5+LC1) VH: EVQLVESGGGLVQPGGSLRLSCAASGFTFSTYAMNWVRQAPGKGLEWVGRIRSKYNNYATYYADSVKGRFTISRDNSKNTLYLQMNSLRAEDTAVYYCVRHGNFGHSYVSWFAVWGQGTLVTVSS VL: QAVVTQEPSLTVSPGGTVTLTCRSSTGAVTTSNYANWVQQKPGQAPRGLIGGTNKRAPWTPARFSGSLIGDKAALTLSGAQPEDEAEYYCALWYSNLWVFGGGTKLTVL = 6.91
• huSP34.4.1 Fab-HF (Fab, V domains shown, also called HC4+LC1) VH: EVQLVESGGGLVQPGGSLRLSCAASGFTFSTYAMNWVRQAPGKGLEWVGRIRSKYNNYATYYAASVKGRFTISRDDSKNSLYLQMNSLRTEDTAVYYCVRHGNFGHSYVSWFAVWGQGTLVTVSS VL: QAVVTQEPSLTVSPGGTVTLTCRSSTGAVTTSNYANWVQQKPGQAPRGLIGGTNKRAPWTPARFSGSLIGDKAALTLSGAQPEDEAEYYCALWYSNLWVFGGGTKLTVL = 7.70
• huSP34.7.6 Fab-HF (Fab, V domains shown, also called HC7+LC6) VH: EVQLVESGGGLVQPGGSLRLSCAASGFTFSDYAMNWVRQAPGKGLEWVGRTRSKYNNYATYYAASVKGRFTISRDDSKNSLYLQMNSLKTEDTAVYYCVRHGNFGNSYVSWFAVWGQGTLVTVSS VL: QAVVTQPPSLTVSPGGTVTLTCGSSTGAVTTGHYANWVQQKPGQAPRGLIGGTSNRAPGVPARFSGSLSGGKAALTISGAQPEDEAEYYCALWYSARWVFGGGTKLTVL = 6.37
